system: OVCAR-3 ovarian; test: NCI tumour cell line growth inhibition, 48 h
property-measured: TGI (µM)
Report as a plain number; the unit µM is understood.

[[record]]
smiles_representation = "CSc1nc2ccc(C)cc2cc1/C=C1/C=C(c2ccccc2)NC1=O"
unit_spec = "µM"
readout_value = 15.9

[[record]]
smiles_representation = "Cc1ccc(S(=O)(=O)N/N=C\\c2c3ccccc3[n+](C)c3ccccc23)cc1"
unit_spec = "µM"
readout_value = 71.5


// query Value lookup for TGI; key = O=C1Nc2ccccc2SC1=C(C(=O)c1ccccc1)C(=O)c1ccccc1
// result 41.5

// query Value lookup for TGI; key = COc1ccc(/C=C2\OC(=O)C(Cl)=C2c2ccc(OC)c(Cl)c2)cc1
// result 43.7

* * *

test system: SF-539 CNS; assay: NCI tumour cell line growth inhibition, 48 h
property-measured: TGI (µM)
Report as a plain number; the unit µM is understood.

Worked cases, TGI given:
[[record]]
compound = "CC1=C(SCCC(=O)OC(C[Se]C2=C(C)C(=O)c3ccccc3C2=O)C(=O)NC(C)(C)C)C(=O)c2ccccc2C1=O (stereo not given)"
unit_spec = "µM"
readout_value = 2.75

[[record]]
compound = "COC(=O)c1cc(C)[nH]c2c(C)cc3nc4ccccc4c3c12"
unit_spec = "µM"
readout_value = 26.4


Okay, next one:
// query Hello, I am looking for reported TGI with SF-539 CNS for CN(C)CCOc1ccc2c(c1)C(=O)/C(=C\c1ncc([N+](=O)[O-])n1C)C2 . Could you help?
// result 3.35

* * *

Below, each entry is listed alongside its reported TGI.
tested on: HCT-116 colon; assay: NCI tumour cell line growth inhibition, 48 h

[[record]]
molecule = "CC1C(c2ccccc2)NC(c2ccccc2)CC1(N)C#N (configuration not stated)"
readout_value = "> 100 µM"


// query Value lookup for TGI; key = O=C1/C(=C/c2ccc(O)cc2)Oc2ccccc21
// result > 100 µM

// query Value lookup for TGI; key = O=NNc1c[nH]c(=O)[nH]c1=O
// result > 100 µM

// query Value lookup for TGI; key = Cc1ccc(C)c2c1n1c(=O)n(C)c(=O)n21
// result > 100 µM

// query Value lookup for TGI; key = CCN1CCC(O)(/C=C/c2ccccc2)C(C(=O)/C=C/c2ccccc2)C1 (configuration not stated)
// result 3.08 µM

// query Value lookup for TGI; key = CC1=C2C3OC(=O)C(C)C3C(O)C[C@@]2(C)C(=O)CC1 (some centres not stated)
// result > 100 µM

// query Value lookup for TGI; key = CCN(CCC#N)C(=O)Nc1ccccc1
// result > 100 µM

// query Value lookup for TGI; key = CCSc1nc(N)c2cnn(CC)c2n1
// result 32.8 µM

* * *

tested on: OVCAR-3 ovarian; experiment: NCI tumour cell line growth inhibition, 48 h; in the data active means GI50 below about 0.43 µM; inactive means the rest
API: response.call in active, inactive

[[record]]
compound = "C=C(CN1CCN(c2ccc(F)c(Cl)c2)CC1)c1ccc(C(=O)Nc2ccccc2N)cc1"
assigned_category = "inactive"

[[record]]
compound = "c1ccc(-c2cc3n4c(-c5ccccc5)nn(-c5ccccc5)c4cnc-3n2)cc1"
assigned_category = "inactive"

[[record]]
compound = "O=C(/C=C/c1ccc(Cl)cc1Cl)c1ccc(Cl)cc1Cl"
assigned_category = "inactive"


// query Each compound tested received a call. Report the one for N#Cc1cc2c(cc1Cl)SC(=Nc1ccccc1)N(S(=O)(=O)c1ccc(Br)s1)S2(=O)=O .
// result inactive

// query Each compound tested received a call. Report the one for COc1ccc(F)cc1-c1ccnc2[nH]c(C3=CCN(C4CCC(CC(=O)O)CC4)CC3)cc12 (configuration not stated) .
// result active

// query Each compound tested received a call. Report the one for Cc1c2ccccc2c(C)n2c1nc1cc(Cl)c(Cl)cc12 .
// result inactive

// query Each compound tested received a call. Report the one for C[C@@H](C[C@H](CCO)c1ccccc1)c1ccc2ccccc2c1 .
// result inactive
